Molecular target: Human TLR7 (Homo sapiens)
Sequence (Q9NYK1 27-1049): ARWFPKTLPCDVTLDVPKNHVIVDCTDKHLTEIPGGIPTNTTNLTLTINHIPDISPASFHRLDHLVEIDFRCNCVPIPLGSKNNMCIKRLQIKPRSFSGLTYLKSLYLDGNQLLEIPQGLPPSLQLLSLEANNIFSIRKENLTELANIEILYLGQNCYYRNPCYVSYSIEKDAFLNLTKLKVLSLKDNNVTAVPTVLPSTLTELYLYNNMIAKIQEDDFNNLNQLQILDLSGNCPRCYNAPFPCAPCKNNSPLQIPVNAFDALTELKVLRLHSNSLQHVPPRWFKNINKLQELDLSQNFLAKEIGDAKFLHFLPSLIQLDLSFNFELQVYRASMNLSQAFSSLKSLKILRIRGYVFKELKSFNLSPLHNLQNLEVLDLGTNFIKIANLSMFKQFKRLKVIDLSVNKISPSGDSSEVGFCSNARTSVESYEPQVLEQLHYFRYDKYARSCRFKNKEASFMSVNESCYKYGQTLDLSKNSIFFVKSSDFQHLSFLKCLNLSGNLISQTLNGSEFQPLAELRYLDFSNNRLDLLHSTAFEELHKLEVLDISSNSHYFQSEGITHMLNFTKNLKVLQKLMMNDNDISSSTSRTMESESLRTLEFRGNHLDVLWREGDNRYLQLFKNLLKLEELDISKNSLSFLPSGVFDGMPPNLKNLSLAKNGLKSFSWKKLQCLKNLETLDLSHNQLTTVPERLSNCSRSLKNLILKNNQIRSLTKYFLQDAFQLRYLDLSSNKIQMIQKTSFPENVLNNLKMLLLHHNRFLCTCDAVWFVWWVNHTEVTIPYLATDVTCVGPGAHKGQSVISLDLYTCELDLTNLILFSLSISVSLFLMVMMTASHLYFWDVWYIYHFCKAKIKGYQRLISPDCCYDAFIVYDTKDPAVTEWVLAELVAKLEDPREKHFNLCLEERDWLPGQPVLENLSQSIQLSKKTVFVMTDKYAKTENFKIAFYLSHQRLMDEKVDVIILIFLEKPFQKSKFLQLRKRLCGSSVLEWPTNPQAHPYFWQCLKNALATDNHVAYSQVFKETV
Experiment: Human TLR7 reporter assay (NF-kB-SEAP) in HEK293 cells
Details: hTLR7/seap-293 HEK293 cells, 20 hours incubation, absorbance 405 nm, read-out: human TLR7 binding activity (EC50)
Experimental readout: EC50

Entry under test: "CCCCOc1nc(N)c2[nH]c(=O)n(CCN[C@@H](CC(=O)OC)C(=O)OC)c2n1" . Its EC50 was 881 nM

Entry under test: "CCCCOc1nc(N)c2[nH]c(=O)n(CCNCC(=O)OC)c2n1" . Its EC50 was 290 nM

Entry under test: "CCCCOc1nc(N)c2[nH]c(=O)n(CCN[C@@H](CCCCN)C(=O)OC)c2n1" . Its EC50 was 1710 nM
